- System: Leukemia L1210
- PROCEDURE DETAILS: Activity against Leukemia L1210, intraperitoneal, increase in life span of mice
- Format: in vivo, female mice (BDF1 family)
- SETUP CONDITIONS: ip; O.D./ILS30
I would appreciate it if you labelled entries True when Therapeutic ratio TR is 40 or higher, otherwise False.

Before answering, review these 5 worked examples.
Query string: Textbook exercise: given the entry "CCCCO[C@H]1O[C@H](CN(CCC)C(=O)N(CCCl)N=O)[C@@H](O)[C@H](O)[C@H]1O" , state whether its Therapeutic ratio TR is greater than or equal to 40.
Result string: False

Query string: Textbook exercise: given the entry "COc1ccc(CN(C(=O)N(CCCl)N=O)[C@H]2[C@@H](OCC(C)C)O[C@H](CO)[C@H](O)[C@@H]2O)cc1" , state whether its Therapeutic ratio TR is greater than or equal to 40.
Result string: False

Query string: Textbook exercise: given the entry "COCCOCCO[C@H]1O[C@H](CN(C(=O)N(CCCl)N=O)C(C)(C)C)[C@@H](O)[C@H](O)[C@H]1O" , state whether its Therapeutic ratio TR is greater than or equal to 40.
Result string: True

Query string: Textbook exercise: given the entry CC(C)CN(C[C@H]1O[C@@H](OCC2CCCO2)[C@H](O)[C@@H]1O)C(=O)N(CCCl)N=O (some centres unmarked) , state whether its Therapeutic ratio TR is greater than or equal to 40.
Result string: True

Query string: Textbook exercise: given the entry COCC(C)N(C(=O)N(CCCl)N=O)C1C(O)C(CO)OC(OC2CCCCC2)C1O (centres unmarked) , state whether its Therapeutic ratio TR is greater than or equal to 40.
Result string: True

Proceed to the following item.
Query string: Textbook exercise: given the entry "COCCCN(C[C@H]1O[C@H](OCC(C)C)[C@H](O)[C@H]1O)C(=O)N(CCCl)N=O" , state whether its Therapeutic ratio TR is greater than or equal to 40.
Result string: True

====

- PROCEDURE DETAILS: Acute toxicity (LD50, Behrens-Karber method)
- Format: in vivo, ICR mice
- SETUP CONDITIONS: mouse, in vivo, ip, mortality during 30 days
METRIC NAME: LD50 at 720 h
Lab note: write values as number then unit, every time.

Some entries whose results are on file:
Query string: Supply recorded LD50 at 720 h for O=NN(CCCl)C(=O)N(CC1CCCO1)[C@H]1[C@H](O)[C@@H](OCCc2ccccc2)O[C@H](CO)[C@H]1O (stereo partly shown) here.
Result string: 460 mg/kg

Query string: Supply recorded LD50 at 720 h for COC(C)CCO[C@H]1O[C@H](CN(C(=O)N(CCCl)N=O)C(C)(C)C)[C@@H](O)[C@H](O)[C@H]1O (stereo partly shown) here.
Result string: 570 mg/kg

Query string: Supply recorded LD50 at 720 h for "CCOCCO[C@H]1O[C@H](CN(CC(C)(C)C)C(=O)N(CCCl)N=O)[C@@H](O)[C@H](O)[C@H]1O" here.
Result string: 510 mg/kg

Next, consider the following molecule.
Query string: Supply recorded LD50 at 720 h for COC(C)CN(C[C@H]1O[C@H](OC2CCCCC2)[C@H](O)[C@@H](O)[C@@H]1O)C(=O)N(CCCl)N=O (stereo partly shown) here.
Result string: 580 mg/kg

====

- System: Ehrlich acites carcinoma
- PROCEDURE DETAILS: Growth-inhibiting effect against Ehrlich acites carcinoma
- Format: in vivo, male mice
- SETUP CONDITIONS: Mus musculus, Ehrlich, 120 h; 200 mg/kg/day ip, 5 days; read-out: T/C %
- Method: Ehrlich acites carcinoma (1×10^7 cells) was implantated into the abdominal cavities of a 6-membered group of male mice. […] Total packed cell volumes [TPCV, namely, total packed volumes of Acites carcinoma] were determined 7 days after the implantation to calculate growth ratio of tumor [T/C%; T: packed volume of Acites carcinoma in treated groups, C: packed volume of Acites carcinoma in an untreated group]. […]
METRIC NAME: response vs control in vivo at 200 mg/kg (%)
Give just the numeric value; % need not be written.

Query string: Answer with response vs control in vivo at 200 mg/kg of "CCCCO[C@@H]1O[C@H](CN(C)C(=O)N(CCCl)N=O)[C@@H](O)[C@H](O)[C@H]1O" measured for Ehrlich acites carcinoma.
Result string: 2.3

Continuing:
Query string: Answer with response vs control in vivo at 200 mg/kg of "CCCCO[C@H]1O[C@H](CN(C)C(=O)N(CCCl)N=O)[C@@H](O)[C@H](O)[C@H]1O" measured for Ehrlich acites carcinoma.
Result string: 0

Query string: Answer with response vs control in vivo at 200 mg/kg of "CCN(C[C@H]1O[C@H](OCC(C)C)[C@H](O)[C@@H](O)[C@H]1O)C(=O)N(CCCl)N=O" measured for Ehrlich acites carcinoma.
Result string: 0

Query string: Answer with response vs control in vivo at 200 mg/kg of "CCCCO[C@H]1O[C@H](CN(C)C(=O)N(CCCl)N=O)[C@H](O)[C@H](O)[C@H]1O" measured for Ehrlich acites carcinoma.
Result string: 0

====

- Tested on: Leukemia L1210
- PROCEDURE DETAILS: Activity against Leukemia L1210, intraperitoneal, increase in life span of mice
- Type: in vivo, female mice (BDF1 family)
- SETUP CONDITIONS: ip; O.D./ILS30
METRIC NAME: Therapeutic ratio TR
Answer as a number with no unit attached.

Query string: Answer with Therapeutic ratio TR of COCCN(C[C@H]1O[C@H](OC2CCCCC2)[C@H](O)[C@@H](O)[C@@H]1O)C(=O)N(CCCl)N=O [Compound 39] measured for Leukemia L1210.
Result string: 68.8

Query string: Answer with Therapeutic ratio TR of CCOCCN(C[C@H]1O[C@H](OCC(C)C)[C@H](O)[C@@H](O)[C@H]1O)C(=O)N(CCCl)N=O [Compound 109] measured for Leukemia L1210.
Result string: 53.5

Query string: Answer with Therapeutic ratio TR of CC(C)(C)CN(C[C@H]1O[C@H](OCC2CCCO2)[C@H](O)[C@@H](O)[C@@H]1O)C(=O)N(CCCl)N=O (stereo partly shown) [Compound 194] measured for Leukemia L1210.
Result string: 62.6

Continuing:
Query string: Answer with Therapeutic ratio TR of CC(C)CO[C@H]1O[C@H](CN(CC(C)C)C(=O)N(CCCl)N=O)[C@H](O)[C@H](O)[C@H]1O [Compound 107] measured for Leukemia L1210.
Result string: 34.1

====

Reported ED (maximum ILS) values follow for various molecules
- System: Leukemia L1210
- PROCEDURE DETAILS: Activity against Leukemia L1210, intraperitoneal, increase in life span of mice
- Assay type: in vivo, female mice (BDF1 family)
- SETUP CONDITIONS: Mus musculus, L1210, ip, ip once a day for 5 successive days; daily dosage giving maximum increase of life span; read-out: O.D. (optimum dosage)
- Procedure: Tests were conducted in accordance with the method for measuring antitumor activity of National Cancer Center Tokyo (A, Hoshi et al, Farumashia 9 464 (1973)). […] An increase percentage of life span (ILS%) was calculated from said average survival days compared with those of the control group. […]
Give just the numeric value; mg/kg need not be written.

Query string: Supply recorded ED (maximum ILS) for CCCCN(C(=O)N(CCCl)N=O)C1C(O)C(CO)OC(OCCCOC)C1O (stereo not shown) here.
Result string: 200

Continuing:
Query string: Supply recorded ED (maximum ILS) for CC(C)(C)N(C[C@H]1O[C@H](OCC2CCCO2)[C@H](O)[C@@H](O)[C@@H]1O)C(=O)N(CCCl)N=O (stereo partly shown) here.
Result string: 160

Query string: Supply recorded ED (maximum ILS) for COCC(C)N(C(=O)N(CCCl)N=O)C1C(CO)OC(OCC(C)C)C(O)C1O (stereo not shown) here.
Result string: 160

Query string: Supply recorded ED (maximum ILS) for COC(C)CN(C[C@H]1O[C@H](OC2CCCCC2)[C@H](O)[C@@H](O)[C@H]1O)C(=O)N(CCCl)N=O (stereo partly shown) here.
Result string: 200

====

Reported ED (maximum ILS) values follow for various molecules
- System: Leukemia L1210
- PROCEDURE DETAILS: Activity against Leukemia L1210, oral, increase in life span of mice
- Assay type: in vivo, female mice (BDF1 family)
- SETUP CONDITIONS: Mus musculus, L1210; oral once a day for 5 successive days; daily dosage giving maximum increase of life span; read-out: O.D. (optimum dosage)
Lab note: write values as number then unit, every time.

Some entries whose results are on file:
Query string: Supply recorded ED (maximum ILS) for CCOCCO[C@H]1O[C@H](CO)[C@@H](O)[C@H](O)[C@H]1N(CCC(C)(C)C)C(=O)N(CCCl)N=O [Compound 192] here.
Result string: 200 mg/kg

Query string: Supply recorded ED (maximum ILS) for COC(C)CN(C(=O)N(CCCl)N=O)[C@@H]1[C@@H](OCC(C)C)OC[C@@H](O)[C@H]1O (stereo partly shown) [Compound 159] here.
Result string: 180 mg/kg

Query string: Supply recorded ED (maximum ILS) for CC(C)CO[C@H]1O[C@H](CN(CC2CCCO2)C(=O)N(CCCl)N=O)[C@@H](O)[C@H](O)[C@H]1O (stereo partly shown) [Compound 23] here.
Result string: 250 mg/kg

Continuing:
Query string: Supply recorded ED (maximum ILS) for COCCN(C(=O)N(CCCl)N=O)C1C(OC(C)COC)OC(CO)C(O)C1O (stereo not shown) [Compound 71] here.
Result string: 220 mg/kg

Source of measurements: patent US4593090A
